biological target: Potassium channel subfamily K member 9 (Homo sapiens); experiment: KCNK9 current inhibition by patch clamp, SAR follow-up, cell-based, automated electrophysiology, HEK293 (AID 623898); conditions: HEK293 KCNK9, QPatch automated patch clamp current

compound: CCOc1ccccc1NC(=O)c1cccc(NC(=O)C2CCCCC2)c1
IC50: 1110 nM

compound: O=C(Nc1cccc(NC(=O)C2CCCCC2)c1)c1ccccc1
IC50: 8100 nM

compound: Cc1cccc(C(=O)Nc2cccc(NC(=O)c3ccccc3C)c2)c1
IC50: 480 nM

compound: CC(C1CC2CCC1C2)n1c(-c2ccsc2)n[nH]c1=S (stereo not drawn)
IC50: 620 nM

compound: COc1ccccc1-c1n[nH]c(=S)n1C(C)C1CC2CCC1C2 (stereo not drawn)
IC50: 1040 nM

compound: CC(CC1CC2CCC1C2)n1c(-c2ccco2)n[nH]c1=S (stereo not drawn)
IC50: 590 nM

compound: CCOc1ccccc1C(=O)Nc1cccc(NC(=O)C2CCCC2)c1
IC50: 490 nM

compound: COc1ccccc1C(=O)Nc1cccc(NC(=O)c2ccccc2OC(F)(F)F)c1
IC50: 600 nM

compound: COc1ccccc1C(=O)Nc1cccc(NC(=O)c2ccccc2OC)c1
IC50: 710 nM

compound: CC(C1CC2CCC1C2)n1c(-c2cccc(N(C)C)c2)n[nH]c1=S (stereo not drawn)
IC50: 1720 nM

compound: CC(C1CC2CCC1C2)n1c(-c2ccccc2Cl)n[nH]c1=S (stereo not drawn)
IC50: 950 nM

compound: COc1ccccc1NC(=O)c1cccc(NC(=O)C2CCCC2)c1
IC50: 3160 nM

compound: CC(C1CC2CCC1C2)n1c(-c2ccccc2)n[nH]c1=S (stereo not drawn)
IC50: 1240 nM

compound: COc1ccccc1NC(=O)c1cccc(NC(=O)c2ccccc2)c1
IC50: 8480 nM

compound: Cc1cccc(C(=O)Nc2cccc(NC(=O)c3cccc(C)c3)c2)c1
IC50: 2240 nM

compound: CCOc1ccccc1C(=O)Nc1cccc(NC(=O)c2ccccc2C(F)(F)F)c1
IC50: 250 nM

compound: C[C@@H]([C@@H]1CC2CC[C@H]1C2)n1c(-c2ccco2)n[nH]c1=S
IC50: 410 nM

compound: CCOc1ccccc1NC(=O)c1cccc(NC(=O)CC2CCCC2)c1
IC50: 3900 nM

compound: COc1ccc(-c2n[nH]c(=S)n2C(C)C2CC3CCC2C3)cc1 (stereo not drawn)
IC50: 330 nM

compound: O=C(Nc1cccc(NC(=O)c2ccccn2)c1)c1ccccc1
IC50: 6100 nM

compound: C[C@@H](C1CCCCC1)n1c(-c2ccco2)n[nH]c1=S
IC50: 6660 nM

compound: O=C(Nc1cccc(NC(=O)c2ccccc2C(F)(F)F)c1)c1ccccc1
IC50: 850 nM

compound: COc1cccc(C(=O)Nc2cccc(NC(=O)c3ccccc3)c2)c1
IC50: 420 nM

----------
biological target: Potassium channel subfamily K member 9 (Homo sapiens) (UniProt Q9NPC2); experiment: KCNK9 current inhibition by patch clamp, SAR follow-up, cell-based, automated electrophysiology, HEK293 (AID 623898); conditions: HEK293 KCNK9, QPatch automated patch clamp current
Sequence (Q9NPC2 whole entry, looked up): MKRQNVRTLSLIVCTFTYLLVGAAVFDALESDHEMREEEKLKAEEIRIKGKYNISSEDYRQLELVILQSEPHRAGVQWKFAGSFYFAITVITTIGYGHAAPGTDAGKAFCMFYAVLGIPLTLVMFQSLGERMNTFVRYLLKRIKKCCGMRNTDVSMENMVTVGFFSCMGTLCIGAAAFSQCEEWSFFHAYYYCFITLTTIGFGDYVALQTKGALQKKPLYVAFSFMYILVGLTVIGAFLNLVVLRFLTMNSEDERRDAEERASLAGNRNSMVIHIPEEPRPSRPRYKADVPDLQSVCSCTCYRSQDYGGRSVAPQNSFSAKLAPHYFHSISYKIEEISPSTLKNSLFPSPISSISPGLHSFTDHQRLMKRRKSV
result type: IC50

compound: CC(C1CC2CCC1C2)n1c(-c2ccco2)nn(CCc2ccncc2)c1=S (stereo not given)
endpoint result: 490 nM
//
compound: Cc1cccc(C(=O)Nc2cccc(NC(=O)c3ccccc3OC(F)(F)F)c2)c1
endpoint result: 990 nM
//
compound: CCOc1ccccc1NC(=O)c1cccc(NC(=O)c2ccccc2C(F)(F)F)c1
endpoint result: 520 nM
//
compound: COc1ccccc1C(=O)Nc1cccc(NC(=O)c2ccccc2C(C)C)c1
endpoint result: 670 nM
//
compound: CCOc1ccccc1C(=O)Nc1cccc(NC(=O)c2ccccc2OC)c1
endpoint result: 180 nM
//
compound: Cc1cccc(C(=O)Nc2cccc(NC(=O)c3ccccc3OCC(C)C)c2)c1
endpoint result: 2520 nM
//
compound: Cc1cccc(C(=O)Nc2cccc(NC(=O)c3ccco3)c2)c1
endpoint result: 950 nM
//
compound: CCOc1ccccc1NC(=O)c1cccc(NC(=O)c2ccccc2OC(F)(F)F)c1
endpoint result: 1490 nM
//
compound: C[C@H](C1CCCCC1)n1c(-c2ccco2)n[nH]c1=S
endpoint result: 510 nM
//
compound: Cc1ccccc1-c1n[nH]c(=S)n1C(C)C1CC2CCC1C2 (stereo not given)
endpoint result: 960 nM
//
compound: CC(C1CC2CCC1C2)n1c(-c2ccoc2)n[nH]c1=S (stereo not given)
endpoint result: 940 nM
//
compound: CC(C1CC2CCC1C2)n1c(-c2ccccc2F)n[nH]c1=S (stereo not given)
endpoint result: 250 nM
//
compound: S=c1[nH]nc(-c2ccco2)n1CC1CCCCC1
endpoint result: 3780 nM
//
compound: CCOc1ccccc1NC(=O)c1cccc(NC(=O)c2cccc(C(F)(F)F)c2)c1
endpoint result: 2100 nM
//
compound: CCOc1ccccc1NC(=O)c1cccc(NC(=O)c2ccccc2)c1
endpoint result: 2140 nM
//
compound: CCOc1ccccc1NC(=O)c1cccc(NC(=O)CC2CCCCC2)c1
endpoint result: 4730 nM
//
compound: CCOc1ccccc1NC(=O)c1cccc(NC(=O)c2cccc(C)c2)c1
endpoint result: 2380 nM
//
compound: COc1ccc(CCSc2nnc(-c3ccco3)n2C(C)C2CC3CCC2C3)cc1OC (stereo not given)
endpoint result: 5480 nM
//
compound: COc1ccccc1C(=O)Nc1cccc(NC(=O)c2cccc(C)c2)c1
endpoint result: 1490 nM
//
compound: CC(C1CC2CCC1C2)n1c(-c2cccc(Cl)c2)n[nH]c1=S (stereo not given)
endpoint result: 960 nM
//
compound: C[C@H](C1CCCCC1)n1c(-c2ccsc2)n[nH]c1=S
endpoint result: 680 nM
//
compound: COc1cccc(-c2n[nH]c(=S)n2C(C)C2CC3CCC2C3)c1 (stereo not given)
endpoint result: 280 nM
//
compound: Cc1cccc(-c2n[nH]c(=S)n2C(C)C2CC3CCC2C3)c1 (stereo not given)
endpoint result: 760 nM
//
compound: Cc1ccccc1C(=O)Nc1cccc(NC(=O)c2ccccc2)c1
endpoint result: 270 nM
//
compound: CCOc1ccccc1C(=O)Nc1cccc(NC(=O)c2cccc(C)c2)c1
endpoint result: 380 nM

src = PubChem BioAssay AID623898
